Test system: CCRIS mutagenicity, Ames/micronucleus/aberration tests
test.details: CCRIS mutagenicity studies
cond: Test System: AMES SALMONELLA TYPHIMURIUM; Strain/Indicator: TA100; Metabolic Activation: RAT, LIVER, S-9, AROCLOR 1254; Method: STANDARD PLATE
Activity calls are given as the source filed them. The rule behind the calls is not given here.
Your reply should match one of these outcome classes. YES for active, NO for inactive

Write down the call the test reported for this molecule. Item: O=C(c1ccccc1)[C@H]1O[C@H]1c1ccc(F)cc1
NO

Hello, I am checking results. What call was entered for C=CCc1ccc(O)cc1 ?
NO

Assay result, entry O=[N+]([O-])c1cc2c(ccc3cc(N(CCCl)CCCl)ccc32)o1 — outcome?
YES

Returns: the outcome recorded for CCN(N=O)c1ccccc1 in this assay.
NO

Just curious, what result did O=C(O)C[C@H](NC(=O)COc1cc(Cl)c(Cl)cc1Cl)C(=O)O get here?
NO

Could you please tell me the result logged for CCOc1ccccc1OCC1CNCCO1 (configuration not stated) in this assay?
NO

Query: recorded result category for OCC(Cl)CCl (configuration not stated) in this test
YES
